Test system: Plasmodium falciparum
Experiment: Antiplasmodial activity CQ-resistant Plasmodium falciparum W2 infected in human erythrocytes assessed as inhibition of parasite growth measured after 72 hrs by HRP2-ELISA
Assay type: functional, organism-based
Details: W2, Erythrocyte
PARAMETER: IC50 (nM)
Give a bare numeral; the unit nM is implied.

[ask] GET /values?readout=IC50&item= OC[C@@H](Cc1ccccc1)NC[C@H](O)c1cc(C(F)(F)F)nc2c(C(F)(F)F)cccc12
[reply] 63.8

[ask] Now the compound O[C@@H](CNCCNC(c1ccccc1)c1ccccc1)c1cc(C(F)(F)F)nc2c(C(F)(F)F)cccc12
[reply] 20.7

[ask] Same thing, different compound: C[C@H]1[C@@H](O)O[C@@H]2O[C@@]3(C)CC[C@H]4[C@H](C)CC[C@@H]1[C@@]24OO3
[reply] 3
